# test-description: Therapeutic index, ratio of CC50 for mouse […] cells to EC50 for inhibition of lipopolysaccharide/interferon-gamma induced nitric oxide production in mouse […] cells
# Type: cell-based
# measurement-setup: read-out: TI
I'd appreciate it if you marked entries Condition met when selectivity ratio is lower than 30 and Condition not met when it is not.

Some solved entries appear below for comparison.
>>> class_assignment("O=C(c1cccc([N+](=O)[O-])c1)c1nccc2c1[nH]c1ccccc12")
"Condition met"
>>> class_assignment("OC(c1ccccc1)c1nccc2c1[nH]c1ccccc12 (stereo not drawn)")
"Condition not met"
>>> class_assignment("O=C(c1ccc(Br)cc1)c1nccc2c1[nH]c1ccccc12")
"Condition not met"
>>> class_assignment("O=C(O)c1cc2c([nH]c3ccccc32)c(C(=O)c2ccc([N+](=O)[O-])cc2)n1")
"Condition met"
>>> class_assignment("O=C(O)c1cc2c([nH]c3ccccc32)c(C(=O)c2ccccc2Br)n1")
"Condition not met"

(Q) Is selectivity ratio strictly under 30 for the entry O=C(c1cccc(Br)c1)c1nccc2c1[nH]c1ccccc12 ?
(A) Condition not met

(Q) Threshold test, selectivity ratio < 30: Cc1ccccc1C(=O)c1nccc2c1[nH]c1ccccc12
(A) Condition not met

(Q) Is selectivity ratio of Cc1cccc(C(=O)c2nc(C(=O)O)cc3c2[nH]c2ccccc23)c1 strictly below 30?
(A) Condition not met

* * *

# test-description: Therapeutic index, ratio of CC50 for mouse […] cells to EC50 for inhibition of lipopolysaccharide/interferon-gamma induced nitric oxide production in mouse […] cells
# Format: cell-based
# measurement-setup: read-out: TI
Give measured selectivity ratio for each item. Keep answers brief.
Numbers only.

Check out these entries, answers already filled in.
>>> recorded_result("CC(=O)c1nc(C(N)=O)cc2c1[nH]c1ccccc12")
21
>>> recorded_result("COc1ccc(C(=O)c2nccc3c2[nH]c2ccccc23)cc1")
18
>>> recorded_result("O=C(c1ccccc1Br)c1nccc2c1[nH]c1ccccc12")
8
>>> recorded_result("COc1ccc(C(=O)c2nc(C(=O)O)cc3c2[nH]c2ccccc23)cc1")
187
>>> recorded_result("COc1cccc(C(=O)c2nccc3c2[nH]c2ccccc23)c1")
6
>>> recorded_result("N=C(N)NN")
16

Batch lookup, selectivity ratio per entry.
1. OC(c1ccc(Br)cc1)c1nccc2c1[nH]c1ccccc12 (stereo not given)
2. Cc1cccc(C(=O)c2nccc3c2[nH]c2ccccc23)c1
3. O=C(O)c1cc2c([nH]c3ccccc32)c(C(=O)c2cccc(Br)c2)n1

(A)
95
120
51

// batch mode: one selectivity ratio value per listed entry
1. Cc1ccc(C(=O)c2nccc3c2[nH]c2ccccc23)cc1
2. Cc1ccc(C(=O)c2nc(C(=O)O)cc3c2[nH]c2ccccc23)cc1

(A)
1. 42
2. 35

Batch lookup, selectivity ratio per entry.
1. O=C(O)c1cc2c([nH]c3ccccc32)c(C(=O)c2ccccc2)n1
2. COC(=O)c1cc2c([nH]c3ccccc32)c(C(=O)c2ccc(OC)cc2)n1
3. O=C(c1ccc([N+](=O)[O-])cc1)c1nccc2c1[nH]c1ccccc12
4. COc1ccc(C(O)c2nccc3c2[nH]c2ccccc23)cc1 (stereo not given)
5. O=C(O)c1cc2c([nH]c3ccccc32)c(C(=O)c2ccccc2[N+](=O)[O-])n1
6. O=C(O)c1cc2c([nH]c3ccccc32)c(C(=O)c2ccc(Br)cc2)n1
7. O=C(c1ccccc1)c1nccc2c1[nH]c1ccccc12

(A)
1. 155
2. 4
3. 6
4. 764
5. 4
6. 20
7. 49
